# Test system: L1210 leukemia ip in BDF1 mice, survival T/C
# Protocol text: NCI In Vivo Anticancer Drug Screen. Data for tumor model L1210 Leukemia (intraperitoneal) in B6D2F1 (BDF1) mice
# Condition set: endpoint: mean survival time; dose: 100.0 mg/kg/injection; schedule: Q01DX009 (ip); vehicle: saline with Tween-80; higher = longer survival
Inconclusive results and toxic doses are left out.
Metric: T/C

Some solved entries appear below for comparison.
INSERT INTO measurements (molecule, metric, measurement) VALUES
  ('COc1ccc(C)cc1NC(=O)Nc1ccco1', 'T/C', '97 % of control'),
  ('CCCCCCCCCCCC(=O)CC', 'T/C', '100 % of control'),
  ('CC(C)(C)NC1CCCC1Cl (configuration not stated)', 'T/C', '106 % of control'),
  ('CN(C)N=Nc1c(Cl)cc(Cl)cc1C(N)=O', 'T/C', '111 % of control'),
  ('COC(=O)c1ccc(SSc2ccc(C(=O)OC)cc2[N+](=O)[O-])c([N+](=O)[O-])c1', 'T/C', '103 % of control');

Hi there! I need T/C for each item below, if you can.
1. N=Cc1c(O)n(-c2ccccc2)c(=O)n(-c2ccccc2)c1=O
2. C=CC1CC1(C(=O)O)C(=O)O (configuration not stated)

output:
1: 102 % of control; 2: 93 % of control

----------
Give T/C for every item shown.
# Tested on: L1210 leukemia ip in BDF1 mice, survival T/C
# Protocol text: NCI In Vivo Anticancer Drug Screen. Data for tumor model L1210 Leukemia (intraperitoneal) in B6D2F1 (BDF1) mice
# Condition set: endpoint: mean survival time; dose: 200.0 mg/kg/injection; schedule: Q01DX001 (ip); vehicle: carboxymethylcellulose (CMC); higher = longer survival
Inconclusive results and toxic doses are left out.

Some solved entries appear below for comparison.
INSERT INTO measurements (compound, measurement) VALUES
  ('CC(=O)OC1C(C)OC(n2cnc3c(=O)[nH]cnc32)C1OC(C)=O (configuration not stated)', '108 % of control'),
  ('CCCCCCc1cc(N=Nc2ccc(S(=O)(=O)Nc3nccs3)cc2)c(O)cc1O', '98 % of control'),
  ('Cc1cc(=S)n(C)c2ccccc12', '89 % of control');

Hi there! I need T/C for each item below, if you can.
1. C/C(=N\NC(N)=O)C1=C(O)C(C(C)C)NC1=O (configuration not stated)
2. Ic1sc(I)c(I)c1I
3. COc1ccc(C=Nc2cc(Cl)ccc2O)cc1
4. CCOP(=S)(N1CC1)N1CC1

output:
103 % of control
93 % of control
95 % of control
95 % of control

----------
# Tested on: L1210 leukemia ip in BDF1 mice, survival T/C
# Protocol text: NCI In Vivo Anticancer Drug Screen. Data for tumor model L1210 Leukemia (intraperitoneal) in B6D2F1 (BDF1) mice
# Condition set: endpoint: mean survival time; dose: 50.0 mg/kg/injection; schedule: Q01DX001 (ip); vehicle: saline with Tween-80; higher = longer survival
Inconclusive results and toxic doses are left out.
Metric: T/C

INSERT INTO results (compound, measurement) VALUES
  ('O=C(O)C1C(c2ccccc2)C2(c3ccccc3)C(=O)C1(c1ccccc1)C(c1ccccc1)=C2c1ccccc1 (stereo unspecified)', '88 % of control'),
  ('COc1cc2c(c(OC)c1OC)-c1ccc(SC)c(=O)cc1C(N=C(NC1OCC(OC(C)=O)C(OC(C)=O)C1OC(C)=O)SN(NC(=O)OCc1ccccc1)C(=O)OCc1ccccc1)CC2 (stereo unspecified)', '95 % of control'),
  ('CCC(Cl)COP(=O)(OCC(Cl)CC)OC(c1ccc(Cl)c(Cl)c1)P(=O)(OCC(Cl)CC)OCC(Cl)CC (stereo unspecified)', '95 % of control'),
  ('CC(C)(C)NC/C(=C\c1ccccc1)S(=O)(=O)c1ccccc1[N+](=O)[O-]', '91 % of control'),
  ('CC1(C)N=C(N)N=C(N)N1c1ccc(Cl)cc1Cl', '93 % of control');

The record that follows has no T/C shown yet.
input: For L1210 leukemia ip in BDF1 mice, survival T/C, provide T/C of `NC(=S)N/N=C/c1ccc([N+](=O)[O-])cc1` please.
output: 91 % of control

----------
Give T/C for every item shown.
# System: L1210 leukemia ip in BDF1 mice, survival T/C
# Protocol text: NCI In Vivo Anticancer Drug Screen. Data for tumor model L1210 Leukemia (intraperitoneal) in B6D2F1 (BDF1) mice
# Condition set: endpoint: mean survival time; dose: 100.0 mg/kg/injection; schedule: Q01DX001 (ip); vehicle: other; higher = longer survival
Inconclusive results and toxic doses are left out.

INSERT INTO measurements (compound, measurement) VALUES
  ('Nc1nnnc2c1cnn2C1OC(CO)C(O)C1O (stereo unspecified)', '97 % of control');

Hi there! I need T/C for each item below, if you can.
1. O=C1CCCCC1O (stereo unspecified)
2. Cc1nc2cnc(N)nc2nc1C
3. Cc1cc(Cc2cc(C)c(C)c(C)c2C)c(C)c(C)c1C
4. Cn1c(=O)c2[nH]c(-c3cccs3)nc2n(C)c1=O
5. NC(=O)c1cc(N2CC2)c([N+](=O)[O-])cc1[N+](=O)[O-]
6. CCOCCNC1=C(Cl)C(=O)c2ccccc2C1=O
7. S=c1nc[nH]c2cc[nH]c12

output:
1. 116 % of control
2. 96 % of control
3. 96 % of control
4. 90 % of control
5. 96 % of control
6. 97 % of control
7. 95 % of control

Hi there! I need T/C for each item below, if you can.
1. CCCCCCCCCCCCCCNC1=C(OC)C(=O)C(NCCCCCCCCCCCCCC)=C(OC)C1=O
2. CCOP(=O)(OCC)c1ccc(N=Cc2cnc3nc(NC(C)=O)[nH]c(=O)c3n2)cc1

output:
1: 95 % of control; 2: 109 % of control

Hi there! I need T/C for each item below, if you can.
1. CC(=O)Oc1ccc2c(=O)c(-c3ccccc3)c(C)oc2c1
2. CC(=O)OC1COC(SC(C)=O)C(OC(C)=O)C1OC(C)=O (stereo unspecified)
3. CCOC(=O)C1C(=O)C(N=Nc2ccc(-c3ccc(N=NC4C(=O)C(C(=O)OCC)C(c5ccc(O)c(OC)c5)C(C(=O)OCC)C4=O)cc3)cc2)C(=O)CC1c1ccc(O)c(OC)c1 (stereo unspecified)
4. CCCCN(C)N=Nc1ccc([N+](=O)[O-])cc1C(N)=O
5. CCCCCCCCCCCCCCCCCCOC(=O)c1ccco1
6. Nc1nc2c(ncn2C(/C=N/Nc2ccccc2)OC(/C=N/Nc2ccccc2)CO)c(=O)[nH]1 (stereo unspecified)

output:
1. 108 % of control
2. 95 % of control
3. 96 % of control
4. 100 % of control
5. 96 % of control
6. 98 % of control

----------
# System: L1210 leukemia ip in BDF1 mice, survival T/C
# Protocol text: NCI In Vivo Anticancer Drug Screen. Data for tumor model L1210 Leukemia (intraperitoneal) in B6D2F1 (BDF1) mice
# Condition set: endpoint: mean survival time; dose: 400.0 mg/kg/injection; schedule: Q01DX009 (ip); vehicle: Klucel (hydroxypropylcellulose) (HPC); higher = longer survival
Inconclusive results and toxic doses are left out.
Metric: T/C

INSERT INTO results (compound, measurement) VALUES
  ('CCOC(=O)c1ccc(C(=O)OCC)c(Cl)n1', '97 % of control'),
  ('COc1ccc(OC)c(NC(=O)Nc2ccc([N+](=O)[O-])cc2OC)c1', '94 % of control'),
  ('C#CCN(C)/N=N/c1nc[nH]c1C(N)=O', '88 % of control'),
  ('COc1cc(NC(=O)Nc2ccc(Cl)cc2[N+](=O)[O-])c(OC)cc1Cl', '89 % of control'),
  ('O=C(c1ccc([N+](=O)[O-])cc1)c1ccccn1', '115 % of control'),
  ('O=C(Nc1ccc(Cl)cc1[N+](=O)[O-])c1ccc2ccccc2c1O', '103 % of control'),
  ('CCc1ccc(NS(=O)(=O)c2ccc(OC)cc2)cc1', '109 % of control'),
  ('CCOC(=O)N1CCN(P(=O)(c2ccccc2)N2CCN(C(=O)OCC)CC2)CC1', '96 % of control'),
  ('COc1ccc(Cl)cc1NC(=O)Oc1cc(C)c(Cl)c(C)c1', '112 % of control'),
  ('Cc1ccc2nc(-c3cc(Br)ccc3O)c(-c3cc(Br)ccc3O)nc2c1', '89 % of control');

Hi there! I need T/C for each item below, if you can.
1. O=C(Nc1ccc(Nc2ccncc2)cc1)c1ccc(Nc2ccnc3ccc([N+](=O)[O-])cc23)cc1
2. O=C(Oc1ccccc1)c1ccccc1Cl
3. CC12C=CC(CC1)C2OC(=O)c1ccccc1C(=O)O (centres undefined)
4. CCCCCCCCCCCCCCCCCC(=O)N/N=C/c1cccc([N+](=O)[O-])c1
5. CN(C)c1ccc(/C=C/C(=O)/C=C/c2ccc(N(C)C)cc2)cc1
6. Cc1ccccc1NC(=O)Nc1ccccc1F
7. CC(C)OC(=O)Nc1ccc(-c2ccc(NC(=O)OC(C)C)cc2)cc1

output:
95 % of control
95 % of control
92 % of control
88 % of control
101 % of control
104 % of control
97 % of control

Taken from PubChem BioAssay AID248.
